Tested on: TNF production by monocytes activated with bacterial lipopolysaccharide (LPS)
Experiment: Lipopolysaccharide-activated monocyte TNF production assay
Type: cell-based, human
Settings: TNF in supernatant by ELISA, listed as 5-(4-Fluorophenyl)-2-(2-(2-fluorophenyl)ethylamino)-4-(4-pyridyl)-pyrimidine, read-out: IC50 values in the monocyte assay (LPS induced TNF release)
pIC50: −log10 of the molar value.
Value Type: pIC50

Need pIC50, item Fc1ccc(-c2cnc(NCCc3ccccc3F)nc2-c2ccncc2)cc1
≥ 5.30

###

Tested on: TNF production by monocytes activated with bacterial lipopolysaccharide (LPS)
Assay: Lipopolysaccharide-activated monocyte TNF production assay
Type: cell-based, human
Details: TNF in supernatant by ELISA, listed as 5-(4-Fluorophenyl)-2-(3-phenylpropyl)amino-4-(4-pyridyl)-pyrimidine, read-out: IC50 values in the monocyte assay (LPS induced TNF release)
Protocol: Lipopolysaccharide-activated Monocyte TNF Production Assay Test compounds were evaluated in vitro for the ability to inhibit the production of TNF by monocytes activated with bacterial lipopolysaccharide (LPS). […] One hundred microliters of each test compound dilution were added to microtiter wells containing adherent monocytes and 100 μl complete medium. […] Culture supernatants were then removed and TNF presence in the supernatants was quantified using an ELISA. […]
pIC50: −log10 of the molar value.
Value Type: pIC50

Need pIC50, item Fc1ccc(-c2cnc(NCCCc3ccccc3)nc2-c2ccncc2)cc1
≥ 5.30

###

Test system: TNF production by monocytes activated with bacterial lipopolysaccharide (LPS)
Experiment: Lipopolysaccharide-activated monocyte TNF production assay
Format: cell-based, human
Settings: TNF in supernatant by ELISA, listed as 5-(4-Fluorophenyl)-2-(2-hydroxy-2-phenyl-ethyl)amino-4-(4-pyridyl)-pyrimidine, read-out: IC50 values in the monocyte assay (LPS induced TNF release)
Value Type: IC50

What value of IC50 on TNF production by monocytes activated with bacterial lipopolysaccharide (LPS) does OC(CNc1ncc(-c2ccc(F)cc2)c(-c2ccncc2)n1)c1ccccc1 (stereo not shown) have?
≤ 5 µM
